All figures here come from the supplement of paper PMC7125110.

B1: glmS ribozyme (parent)
chain: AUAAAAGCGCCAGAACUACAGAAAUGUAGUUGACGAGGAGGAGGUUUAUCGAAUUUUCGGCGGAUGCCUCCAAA

# Variants of: B1
# measurement-protocol: kcat; higher = faster cleavage; RNA array
# details: with glucosamine-6-phosphate
Fewer inactive variants are shown than the library holds.
result-type: kcat (s⁻¹)
Just the number please, in s⁻¹, no unit attached.

// worked examples, kcat included
variant-code: C11U A14G
result-type: kcat
measurement-unit: s⁻¹
reported: 0.0102
//
variant-code: A12C U55C
result-type: kcat
measurement-unit: s⁻¹
reported: 0.00941
//
variant-code: G9C C61G
result-type: kcat
measurement-unit: s⁻¹
reported: 0.00838
//
variant-code: U30G A42U C67G
result-type: kcat
measurement-unit: s⁻¹
reported: 0.00016
//
variant-code: U31A
result-type: kcat
measurement-unit: s⁻¹
reported: 0.0242

Quote kcat reported for G29A A33C please.
5.32e-05

Quote kcat reported for G13U U56G please.
0.000921

Quote kcat reported for A52G C70U C71G please.
2.63e-05

Quote kcat reported for G13C U30C please.
0.000129

Quote kcat reported for C50A please.
2.67e-05

Quote kcat reported for G38C G66C C70U please.
1.23e-05

Quote kcat reported for U56A U69A please.
9.71e-05

Quote kcat reported for C11U A42G please.
0.00345

Quote kcat reported for A12G C68U please.
0.000271

Quote kcat reported for C61U U69A please.
4.43e-05

Quote kcat reported for A48G A53C please.
5.9e-05

Quote kcat reported for G32U C70G please.
7.04e-05

Quote kcat reported for U46A C50U C58A C71G please.
1.07e-05

Quote kcat reported for U65A G66C please.
0.000476

Quote kcat reported for G21U please.
0.0659

Quote kcat reported for C11A C70A please.
2.97e-05
